assay: chemical genetic growth profiling, strain panel (AID 1159580);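 further: tested at 20 µM; growth read once vehicle control cultures reached saturation at 30 °C; 1 = growth at the plate median or of vehicle wells; lower values mean less growth of the strain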; settings: S. cerevisiae deletion strains, growth OD, locus YBR231C, strain swc5, active compounds read low
The campaign covered roughly 5,500 compounds. About 2,000 (36%) were called active. About 18% were inconclusive and are not listed. This is one part of the list.
Assignment: determine reported normalized growth for the given compounds.

Documented normalized growth of OC[C@H]1O[C@@](CO)(O[C@@H]2O[C@H](CO)[C@@H](O)[C@H](O)[C@H]2O)[C@@H](O[C@@H]2O[C@H](CO)[C@@H](O)[C@H](O)[C@H]2O)[C@@H]1O : 1.02 (inactive)

Documented normalized growth of COc1cc(C(C)=O)cc(OC)c1O : 1.02 (inactive)

Documented normalized growth of CC(=O)c1cc(CC=C(C)C)c(O)c(CC=C(C)C)c1 : 1 (inactive)

Documented normalized growth of O=C(O)c1ccc(S(=O)(=O)N(Cl)Cl)cc1 : 0.995 (inactive)

Documented normalized growth of Cc1cn[nH]c1 : 1.04 (inactive)

Documented normalized growth of Nc1ccc(S(=O)(=O)NC(=O)c2ccccc2)cc1 : 0.992 (inactive)

Documented normalized growth of Cc1cc(=O)oc2cc(O)cc(O)c12 : 0.975 (inactive)

Documented normalized growth of COC(=O)c1c(OC)cc2c(c1C)Oc1c(Cl)c(O)c(Cl)c(C)c1C(=O)O2 : 0.989 (inactive)

Documented normalized growth of CN(C)[C@@H]1C(=O)C(C(N)=O)=C(O)[C@@]2(O)C(=O)C3=C(O)c4c(O)ccc(Cl)c4[C@@](C)(O)[C@H]3C[C@@H]12 : 0.986 (inactive)

Documented normalized growth of O=C(O)c1ccccc1 : 0.974 (inactive)

Documented normalized growth of NC1=NCCN1CC(=O)O : 1.01 (inactive)

Documented normalized growth of NC(Cn1ccc(=O)c(O)c1)C(=O)O (configuration not stated) : 1.01 (inactive)

Documented normalized growth of COC(=O)/C(=C1\OC(=O)C(c2ccccc2)=C1O)c1ccccc1 : 0.985 (inactive)

Documented normalized growth of CC[N+](C)(C)c1cccc(O)c1 : 1.03 (inactive)

Documented normalized growth of CS(=O)(=O)Nc1ccc([N+](=O)[O-])cc1Oc1ccccc1 : 0.993 (inactive)

Documented normalized growth of CC(=O)c1ccc(O)c(CC=C(C)C)c1 : 0.929 (inactive)

Documented normalized growth of OC[C@H]1O[C@@H](O[C@@H]2[C@@H](CO)O[C@](O)(CO)[C@H]2O)[C@H](O)[C@@H](O)[C@H]1O : 1.01 (inactive)

Documented normalized growth of CC(=O)Oc1ccc(/C=C/c2cc(OC(C)=O)cc(OC(C)=O)c2)cc1 : 0.986 (inactive)

Documented normalized growth of Cc1cc(=O)oc2cc(O)c(O)cc12 : 0.995 (inactive)

Documented normalized growth of COc1cc(C/C=C/c2ccccc2)c(OC)cc1O : 0.942 (inactive)

Documented normalized growth of Oc1cccc(O)c1 : 0.99 (inactive)

Documented normalized growth of CC(=O)Oc1ccc(C(c2ccc(OC(C)=O)cc2)c2ccccn2)cc1 : 0.997 (inactive)

---

Assignment: determine reported normalized growth for the given compounds.
experiment: chemical genetic growth profiling, strain panel (AID 1159580);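 further: tested at 20 µM; growth read once vehicle control cultures reached saturation at 30 °C; 1 = growth at the plate median or of vehicle wells; lower values mean less growth of the strain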; conditions: S. cerevisiae deletion strains, growth OD, locus YML094W, strain GIM5, active compounds read low
In all, about 5,500 compounds went through this assay and about 2,000 (36%) were called active. Inconclusive results (about 18%) are left out. The list shows a part of the results.
Write no unit; give the number alone.

Documented normalized growth of COC(=O)c1ccc(S(=O)(=O)N2CCC(C(N)=O)CC2)n1C : 0.999

Documented normalized growth of NC(N)=NC(N)=Nc1ccc2c(c1)OCCO2 : 1.06

Documented normalized growth of CCOC(=O)c1ccc(NC(N)=S)cc1 : 0.966

Documented normalized growth of c1ccc(CN2CCC(n3nnc4cccnc43)CC2)cc1 : 0.984

Documented normalized growth of N#CCCC1(CCC#N)c2ccccc2-c2ccccc21 : 1.03

Documented normalized growth of O=[N+]([O-])c1ccc(N2CCOCC2)cc1 : 0.939

Documented normalized growth of COC(OC)c1cc(=O)[nH]c(=S)[nH]1 : 1.02

Documented normalized growth of Cc1cccc(C)c1N=C1SCCS1 : 0.978

Documented normalized growth of NNC(=S)Nc1ccc2c(c1)OCCO2 : 0.944

Documented normalized growth of N#CC(c1ccccc1)N1CCCCC1 (stereo unspecified) : 1.02

Documented normalized growth of Fc1cc(F)cc(COc2cc(Cl)cc(Cl)c2)c1 : 1.01

Documented normalized growth of N/C(Cc1cccc2ccccc12)=N/O : 1.01

Documented normalized growth of Cn1c(CSc2ccccc2)n[nH]c1=S : 1.01

Documented normalized growth of Clc1cncc(Cl)c1N/N=C\C1CC2C=CC1C2 (stereo unspecified) : 0.838

Documented normalized growth of COCc1cc(=O)n2[nH]c(C(C)(C)C)cc2n1 : 0.986

Documented normalized growth of O=C(O)CSC1CCS(=O)(=O)C1 (stereo unspecified) : 1.03
